Origin of measurements: paper PMC7367873

System: GFP-14-3-3β and its binding proteins
assay.method.text: GFP-14-3-3β co-IP with LC-MS/MS label-free quantification, untreated versus PP1c-treated
Parameters: species or system human
test.conditions: PP1 vs untreated; LFQ intensities, replicates 1-3
recorded.metric: Difference (log2), PP1 vs untreated
Please state the number and follow it with the unit.

Below, each entry is followed by its recorded Difference (log2), PP1 vs untreated result.
HNRNPA3 (protein, UniProt P51991 1-378, looked up) Heterogeneous nuclear …: MEVKPPPGRPQPDSGRRRRRRGEEGHDPKEPEQLRKLFIGGLSFETTDDSLREHFEKWGTLTDCVVMRDPQTKRSRGFGFVTYSCVEEVDAAMCARPHKVDGRVVEPKRAVSREDSVKPGAHLTVKKIFVGGIKEDTEEYNLRDYFEKYGKIETIEVMEDRQSGKKRGFAFVTFDDHDTVDKIVVQKYHTINGHNCEVKKALSKQEMQSAGSQRGRGGGSGNFMGRGGNFGGGGGNFGRGGNFGGRGGYGGGGGGSRGSYGGGDGGYNGFGGDGGNYGGGPGYSSRGGYGGGGPGYGNQGGGYGGGGGYDGYNEGGNFGGGNYGGGGNYNDFGNYSGQQQSNYGPMKGGSFGGRSSGSPYGGGYGSGGGSGGYGSRRF | -0.8983 log2
SH3BP5L (protein, UniProt Q7L8J4 1-393, looked up) SH3 domain-binding protein …: MAELRQVPGGRETPQGELRPEVVEDEVPRSPVAEEPGGGGSSSSEAKLSPREEEELDPRIQEELEHLNQASEEINQVELQLDEARTTYRRILQESARKLNTQGSHLGSCIEKARPYYEARRLAKEAQQETQKAALRYERAVSMHNAAREMVFVAEQGVMADKNRLDPTWQEMLNHATCKVNEAEEERLRGEREHQRVTRLCQQAEARVQALQKTLRRAIGKSRPYFELKAQFSQILEEHKAKVTELEQQVAQAKTRYSVALRNLEQISEQIHARRRGGLPPHPLGPRRSSPVGAEAGPEDMEDGDSGIEGAEGAGLEEGSSLGPGPAPDTDTLSLLSLRTVASDLQKCDSVEHLRGLSDHVSLDGQELGTRSGGRRGSDGGARGGRHQRSVSL | -0.8873 log2
HNRNPA2B1 (protein, UniProt P22626 1-353, looked up) Heterogeneous nuclear …: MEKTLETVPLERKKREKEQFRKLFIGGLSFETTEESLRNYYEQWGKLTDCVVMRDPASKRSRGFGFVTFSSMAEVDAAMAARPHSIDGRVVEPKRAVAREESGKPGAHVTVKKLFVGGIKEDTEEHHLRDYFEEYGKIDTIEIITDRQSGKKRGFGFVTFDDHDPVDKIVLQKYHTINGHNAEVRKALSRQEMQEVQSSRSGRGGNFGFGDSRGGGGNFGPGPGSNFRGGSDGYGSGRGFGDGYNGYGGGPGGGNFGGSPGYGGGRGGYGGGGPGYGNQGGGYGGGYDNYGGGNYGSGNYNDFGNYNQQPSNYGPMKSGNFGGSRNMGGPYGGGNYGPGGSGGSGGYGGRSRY | -1.185 log2
YWHAH (protein, UniProt Q04917 2-246, looked up) 14-3-3 protein eta: GDREQLLQRARLAEQAERYDDMASAMKAVTELNEPLSNEDRNLLSVAYKNVVGARRSSWRVISSIEQKTMADGNEKKLEKVKAYREKIEKELETVCNDVLSLLDKFLIKNCNDFQYESKVFYLKMKGDYYRYLAEVASGEKKNSVVEASEAAYKEAFEISKEQMQPTHPIRLGLALNFSVFYYEIQNAPEQACLLAKQAFDDAIAELDTLNEDSYKDSTLIMQLLRDNLTLWTSDQQDEEAGEGN | -0.8796 log2
HNRNPA0 (protein, UniProt Q13151 1-305, looked up) Heterogeneous nuclear …: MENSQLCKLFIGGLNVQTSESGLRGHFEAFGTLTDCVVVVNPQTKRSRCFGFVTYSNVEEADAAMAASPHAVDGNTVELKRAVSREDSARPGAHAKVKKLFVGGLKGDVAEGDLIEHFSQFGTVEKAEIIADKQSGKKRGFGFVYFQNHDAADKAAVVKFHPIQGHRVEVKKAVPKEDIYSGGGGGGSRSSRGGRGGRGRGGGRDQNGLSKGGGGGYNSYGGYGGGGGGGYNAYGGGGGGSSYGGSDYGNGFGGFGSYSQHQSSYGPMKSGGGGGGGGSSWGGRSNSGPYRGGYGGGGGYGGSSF | -1.439 log2

Record summary for CENPV (protein, UniProt Q7Z7K6 1-275, looked up) Centromere protein V: MRRSRSSAAAKLRGQKRSGASGASAAPAASAAAALAPSATRTRRSASQAGSKSQAVEKPPSEKPRLRRSSPRAQEEGPGEPPPPELALLPPPPPPPPTPATPTSSASNLDLGEQRERWETFQKRQKLTSEGAAKLLLDTFEYQGLVKHTGGCHCGAVRFEVWASADLHIFDCNCSICKKKQNRHFIVPASRFKLLKGAEHITTYTFNTHKAQHTFCKRCGVQSFYTPRSNPGGFGIAPHCLDEGTVRSMVTEEFNGSDWEKAMKEHKTIKNMSKE : reported Difference (log2), PP1 vs untreated = -0.9888 log2

Record summary for FBL (protein, UniProt P22087 1-321, looked up) rRNA 2'-O-methyltransferase …: MKPGFSPRGGGFGGRGGFGDRGGRGGRGGFGGGRGRGGGFRGRGRGGGGGGGGGGGGGRGGGGFHSGGNRGRGRGGKRGNQSGKNVMVEPHRHEGVFICRGKEDALVTKNLVPGESVYGEKRVSISEGDDKIEYRAWNPFRSKLAAAILGGVDQIHIKPGAKVLYLGAASGTTVSHVSDIVGPDGLVYAVEFSHRSGRDLINLAKKRTNIIPVIEDARHPHKYRMLIAMVDVIFADVAQPDQTRIVALNAHTFLRNGGHFVISIKANCIDSTASAEAVFASEVKKMQQENMKPQEQLTLEPYERDHAVVVGVYRPPPKVKN : reported Difference (log2), PP1 vs untreated = -1.367 log2

Record summary for CDC42EP1 (protein, UniProt Q00587 1-391, looked up) Cdc42 effector protein 1: MPGPQGGRGAATMSLGKLSPVGWVSSSQGKRRLTADMISHPLGDFRHTMHVGRGGDVFGDTSFLSNHGGSSGSTHRSPRSFLAKKLQLVRRVGAPPRRMASPPAPSPAPPAISPIIKNAISLPQLNQAAYDSLVVGKLSFDSSPTSSTDGHSSYGLDSGFCTISRLPRSEKPHDRDRDGSFPSEPGLRRSDSLLSFRLDLDLGPSLLSELLGVMSLPEAPAAETPAPAANPPAPTANPTGPAANPPATTANPPAPAANPSAPAATPTGPAANPPAPAASSTPHGHCPNGVTAGLGPVAEVKSSPVGGGPRGPAGPALGRHWGAGWDGGHHYPEMDARQERVEVLPQARASWESLDEEWRAPQAGSRTPVPSTVQANTFEFADAEEDDEVKV : reported Difference (log2), PP1 vs untreated = -0.8522 log2
